biological target: Human PDE10A2 (Homo sapiens (Human), UniProt Q9Y233); assay: biochemical; type: biochemical; conditions: human PDE10A2 0.25 nM, cGMP 3 μM
Sequence (Q9Y233 267-1055): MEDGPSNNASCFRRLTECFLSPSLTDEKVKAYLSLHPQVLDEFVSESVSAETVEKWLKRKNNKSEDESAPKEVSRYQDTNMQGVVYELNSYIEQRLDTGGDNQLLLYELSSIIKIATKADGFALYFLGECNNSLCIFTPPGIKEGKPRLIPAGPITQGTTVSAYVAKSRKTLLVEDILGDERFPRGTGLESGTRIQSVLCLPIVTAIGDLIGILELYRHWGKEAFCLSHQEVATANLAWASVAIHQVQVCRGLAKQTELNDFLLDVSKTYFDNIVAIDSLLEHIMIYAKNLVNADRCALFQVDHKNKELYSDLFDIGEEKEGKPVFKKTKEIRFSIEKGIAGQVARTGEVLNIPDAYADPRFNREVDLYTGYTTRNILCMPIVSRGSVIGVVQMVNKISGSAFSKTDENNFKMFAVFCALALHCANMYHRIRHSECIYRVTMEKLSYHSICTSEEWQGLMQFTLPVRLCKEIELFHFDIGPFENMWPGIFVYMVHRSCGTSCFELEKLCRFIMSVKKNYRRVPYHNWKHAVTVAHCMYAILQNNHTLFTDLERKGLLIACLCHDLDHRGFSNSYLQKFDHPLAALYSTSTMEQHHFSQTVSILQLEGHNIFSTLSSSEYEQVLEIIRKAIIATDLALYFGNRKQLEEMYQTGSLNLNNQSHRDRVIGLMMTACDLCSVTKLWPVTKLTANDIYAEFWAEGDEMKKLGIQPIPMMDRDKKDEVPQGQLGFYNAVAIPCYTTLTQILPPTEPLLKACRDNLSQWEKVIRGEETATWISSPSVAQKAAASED
Labelling field: enter Condition met if recorded PDE10A2 Phosphate Sensor Enzyme Assay (pIC50) is less than 9. Enter Condition not met if it equals or exceeds that cut-off.

Worked examples follow.
INSERT INTO results (record_smiles, classification) VALUES
  ('Cn1cc(-c2cccnc2)nc1C#Cc1nc(N2CC3(COC3)C2)c2ncn(C)c2n1', 'Condition met'),
  ('Cn1cc(-c2ccccc2)nc1C#Cc1nc(N2CCS(=N)(=O)CC2)c2cnn(C)c2n1', 'Condition not met'),
  ('Cn1cc(-c2ccccc2)nc1C#Cc1nc2c(c(N3CCOCC3)n1)CCN(C1COC1)C2', 'Condition not met');

# evaluate next
Confirm or reject: PDE10A2 Phosphate Sensor Enzyme Assay (pIC50) of `C[C@@H]1COCCN1c1nc(C#Cc2nc(-c3cccnc3)c[nH]2)nc2c1ncn2C` lies strictly below 9
Condition not met

====

Each item that follows carries a reported PDE10A2 Phosphate Sensor Enzyme Assay (pIC50).
molecular target: Human PDE10A2 (Homo sapiens (Human), UniProt Q9Y233); test: biochemical; format: biochemical; details: human PDE10A2 0.25 nM, cGMP 3 μM
Output: the number by itself.

INSERT INTO assay_data (record_smiles, observed_result) VALUES
  ('C(#Cc1nc(-c2ccccc2)c[nH]1)c1nc(N2C[C@H]3COC[C@H]3C2)c2cnn(C3COC3)c2n1', 9.49),
  ('CC(C)n1ncc2c(N3C[C@H]4COC[C@H]4C3)nc(C#Cc3nc(-c4ccccc4)cn3C)nc21', 9.99),
  ('Cn1cc(-c2ccccc2)nc1C#Cc1nc2c(c(N3CCOCC3)n1)CCNC2', 9.80);

For the compound shown here, `Cn1cnc2c(N3CC4(COC4)C3)nc(C#Cc3nc(-c4ccccc4)cn3CCN3CCOCC3)nc21` , give the reported PDE10A2 Phosphate Sensor Enzyme Assay (pIC50).
9.37

Same again, this time with `Cn1cnc2c(N3C[C@H]4COC[C@H]4C3)nc(C#Cc3nc(-c4ccccc4)c[nH]3)nc21`
9.34

Then `CC(C)n1ncc2c(N3C[C@H]4COC[C@H]4C3)nc(C#Cc3nc(-c4ccccc4)c[nH]3)nc21` ?
9.95

Now try `CCn1ncc2c(N3C[C@H]4COC[C@H]4C3)nc(C#Cc3nc(-c4ccccc4)cn3C)nc21` .
10.50

Please answer likewise for `CN(C)CCOc1cccc(-c2c[nH]c(C#Cc3nc(N4C[C@H]5COC[C@H]5C4)c4cnn(C)c4n3)n2)c1`
10.4

====

biological target: Human PDE10A2 (Homo sapiens (Human)); test: cell-based; details: Forskolin 10 μM; read-out: cAMP HTRF Assay in HEK 293 rhPDE10A2 cell line (pIC50) (converted)
Labelling field: enter met if recorded IC50 is less than 3 nM. Enter not met if it equals or exceeds that cut-off.

Consider the following illustrative entries.
INSERT INTO results (compound, classification) VALUES
  ('C[C@H]1COCCN1c1nc(C#Cc2nc(-c3ccccc3)c[nH]2)nc2c1ncn2C [Example 30]', 'not met'),
  ('Cn1cc(-c2ccccc2)nc1C#Cc1nc(N2C[C@H]3COC[C@H]3C2)c2ncn(C)c2n1 [Example 20]', 'not met'),
  ('C[C@@H]1COCCN1c1nc(C#Cc2nc(-c3ccccc3)cn2C)nc2c1CCNC2 [Example 12]', 'met');

# check: IC50 < 3 nM for Cn1cc(-c2ccccc2)nc1C#Cc1nc(N2CC3(COC3)C2)c2cnn(C3CCOCC3)c2n1 [Example 6]
not met

Consider next the compound Cn1cc(-c2ccccc2)nc1C#Cc1nc(N2CC3(COC3)C2)c2cnn(CC3CNC3)c2n1 [Example 8] in the same way.
not met
